The measurements presented in this section are drawn from patent US20060183922A1.

Task for the reader: assign each of the following compounds its reported Ki.
- tested system: human CB2 receptor (transfected human embryonic kidney 293 cells) (Homo sapiens, UniProt P34972)
- Sequence (P34972 whole entry): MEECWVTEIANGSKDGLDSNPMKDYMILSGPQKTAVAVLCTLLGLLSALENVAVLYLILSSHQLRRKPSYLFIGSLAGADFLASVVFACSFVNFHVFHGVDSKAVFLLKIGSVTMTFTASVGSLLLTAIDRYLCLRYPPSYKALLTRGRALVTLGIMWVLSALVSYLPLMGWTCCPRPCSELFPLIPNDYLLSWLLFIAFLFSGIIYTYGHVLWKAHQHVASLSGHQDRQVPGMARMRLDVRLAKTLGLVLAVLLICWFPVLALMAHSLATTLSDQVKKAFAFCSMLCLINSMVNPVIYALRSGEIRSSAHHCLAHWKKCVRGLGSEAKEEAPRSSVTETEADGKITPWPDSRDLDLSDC
Give bare numbers, in nM.

smiles_structure=CCCC(C)(C)c1ccc2c(c1)OC(C)(C)[C@@H]1CC[C@@H](O)C[C@@H]21 measured_parameter=Ki uom=nM recorded_measurement=36.1
smiles_structure=CCCCC(C)(C)c1cc(OC)c2c(c1)OC(C)(C)[C@@H]1CC[C@@H](O)C[C@@H]21 measured_parameter=Ki uom=nM recorded_measurement=29.8
smiles_structure=CC[C@@H](C)Cc1ccc2c(c1)OC(C)(C)[C@@H]1CC=C(C)C[C@@H]21 measured_parameter=Ki uom=nM recorded_measurement=31.3

We now examine a further compound.
# lookup: Ki of CCCCCC(C)(C)c1cc(OC)c2c(c1)OC(C)(C)[C@@H]1CC[C@@H](O)C[C@@H]21 11.8
